assay-name: Plasma exposure in phrenic nerve activity assay
Format: in vivo
assay-context: CD, rat, plasma, intravenous, 30 mg/kg, 30 min, read-out: Unbound [plasma]
readout-name: concentration at 30 min (µM)
Number in µM, nothing else.

Ask: Requested field: concentration at 30 min. Item: `O=S(=O)(Nc1nccs1)c1cc(Cl)c(NCCCCNC[C@H]2CCCN2)cc1F`
Result: 15.8

----------
assay-name: Plasma exposure in rat CV/R assay
Format: in vivo
assay-context: male, CD, rat, plasma, iv, 3 mg/kg, rat, IV infusion, 3 mg/kg, 30 min; read-out: Unbound [plasma]
readout-name: concentration at 30 min
Answer shape: numeric part, then the unit.

Ask: Requested field: concentration at 30 min. Item: `O=S(=O)(Nc1ncns1)c1cc(F)c(NCC23CCCN2CCC3)cc1F`
Result: 8.4 µM

----------
assay-name: Plasma exposure in phrenic nerve activity assay
Assay type: in vivo
assay-context: CD, rat, plasma, intravenous, 60 mg/kg, 30 min, read-out: Unbound [plasma]
readout-name: concentration at 30 min (µM)
Number in µM, nothing else.

Ask: Requested field: concentration at 30 min. Item: `N#Cc1cc(S(=O)(=O)Nc2cscn2)ccc1Oc1ccc(Cl)cc1-c1ccnn1C1CNC1`
Result: 11

----------
assay-name: Plasma exposure in phrenic nerve activity assay
Assay type: in vivo
assay-context: CD, rat, plasma, intravenous, 30 mg/kg, 10 min, read-out: Unbound [plasma]
readout-name: concentration at 10 min (µM)
Number in µM, nothing else.

Ask: Requested field: concentration at 10 min. Item: `O=S(=O)(Nc1ncns1)c1cc(F)c(NCC23CCCN2CCC3)cc1F`
Result: 43.5

----------
study-system: Nav1.6 (Homo sapiens, UniProt Q9UQD0)
Sequence (Q9UQD0 whole entry): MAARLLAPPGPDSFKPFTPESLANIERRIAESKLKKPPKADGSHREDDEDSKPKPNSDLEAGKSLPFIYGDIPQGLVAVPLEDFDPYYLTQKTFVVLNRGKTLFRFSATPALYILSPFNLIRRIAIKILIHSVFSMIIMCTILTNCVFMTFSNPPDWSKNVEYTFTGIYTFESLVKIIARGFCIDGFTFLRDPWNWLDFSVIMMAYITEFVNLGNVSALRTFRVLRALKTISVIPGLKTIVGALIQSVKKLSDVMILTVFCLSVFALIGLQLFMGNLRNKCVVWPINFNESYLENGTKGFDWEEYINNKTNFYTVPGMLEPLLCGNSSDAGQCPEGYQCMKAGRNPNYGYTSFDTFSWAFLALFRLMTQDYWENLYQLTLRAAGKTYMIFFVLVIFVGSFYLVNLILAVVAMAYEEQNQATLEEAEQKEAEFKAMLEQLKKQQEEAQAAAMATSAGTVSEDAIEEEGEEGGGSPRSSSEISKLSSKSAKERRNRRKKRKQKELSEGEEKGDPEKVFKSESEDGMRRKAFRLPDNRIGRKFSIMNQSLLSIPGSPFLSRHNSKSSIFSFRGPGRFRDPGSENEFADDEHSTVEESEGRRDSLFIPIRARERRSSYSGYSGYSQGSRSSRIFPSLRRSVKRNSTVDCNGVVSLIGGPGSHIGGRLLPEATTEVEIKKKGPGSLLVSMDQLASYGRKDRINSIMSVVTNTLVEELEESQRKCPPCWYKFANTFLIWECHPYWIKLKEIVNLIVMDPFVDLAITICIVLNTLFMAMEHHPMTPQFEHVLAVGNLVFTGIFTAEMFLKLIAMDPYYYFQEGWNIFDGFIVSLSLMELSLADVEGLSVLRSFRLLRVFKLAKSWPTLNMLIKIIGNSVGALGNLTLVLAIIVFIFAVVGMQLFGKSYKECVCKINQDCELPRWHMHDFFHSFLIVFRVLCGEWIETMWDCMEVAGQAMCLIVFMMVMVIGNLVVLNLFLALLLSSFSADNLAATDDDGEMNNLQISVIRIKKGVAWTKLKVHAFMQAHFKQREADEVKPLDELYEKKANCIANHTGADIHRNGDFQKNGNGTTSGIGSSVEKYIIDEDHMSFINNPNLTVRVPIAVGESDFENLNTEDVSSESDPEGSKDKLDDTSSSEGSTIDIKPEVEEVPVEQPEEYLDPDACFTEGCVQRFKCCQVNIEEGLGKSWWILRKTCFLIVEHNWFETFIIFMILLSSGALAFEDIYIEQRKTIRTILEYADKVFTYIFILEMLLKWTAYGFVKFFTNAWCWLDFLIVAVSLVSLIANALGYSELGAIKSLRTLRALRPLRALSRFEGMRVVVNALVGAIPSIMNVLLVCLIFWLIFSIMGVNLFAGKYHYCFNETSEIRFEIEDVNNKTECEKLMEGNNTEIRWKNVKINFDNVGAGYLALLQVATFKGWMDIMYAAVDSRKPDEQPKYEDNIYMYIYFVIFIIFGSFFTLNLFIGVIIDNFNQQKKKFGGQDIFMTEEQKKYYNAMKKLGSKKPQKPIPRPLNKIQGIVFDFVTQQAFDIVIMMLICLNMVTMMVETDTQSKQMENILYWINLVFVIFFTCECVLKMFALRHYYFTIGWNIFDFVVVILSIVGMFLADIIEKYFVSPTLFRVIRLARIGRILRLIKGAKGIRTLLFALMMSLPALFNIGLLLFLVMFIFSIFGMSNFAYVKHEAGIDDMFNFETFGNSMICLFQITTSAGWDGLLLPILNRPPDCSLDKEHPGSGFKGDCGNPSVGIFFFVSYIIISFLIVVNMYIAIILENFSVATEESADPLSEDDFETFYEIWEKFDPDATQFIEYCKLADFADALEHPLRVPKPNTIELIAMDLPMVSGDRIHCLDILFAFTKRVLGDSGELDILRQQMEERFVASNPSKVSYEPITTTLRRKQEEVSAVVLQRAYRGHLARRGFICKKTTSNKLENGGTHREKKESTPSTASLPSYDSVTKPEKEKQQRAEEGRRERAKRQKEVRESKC
assay-name: PX Nav1.6 IC50 (supplement)
Type: cell-based
Design: expressed in transfected cells; host or cells: HEK cells
readout-name: IC50 (µM)
Number in µM, nothing else.

Ask: Requested field: IC50. Item: `O=S(=O)(Nc1nccs1)c1cc(Cl)c(NCCCCNC[C@H]2CCCN2)cc1F`
Result: 18.2

----------
assay-name: Plasma exposure in rat CV/R assay
Format: in vivo
assay-context: male, CD, rat, plasma, iv, 3 mg/kg, rat, IV infusion, 3 mg/kg, 30 min; read-out: Total [plasma]
readout-name: concentration at 30 min (µM)
Number in µM, nothing else.

Ask: Requested field: concentration at 30 min. Item: O=S(=O)(Nc1ncns1)c1cc(F)c(NCC23CCCN2CCC3)cc1F [SSCI-4]
Result: 17.6

----------
assay-name: Plasma exposure in rat CV/R assay
Assay type: in vivo
assay-context: male, CD, rat, plasma, iv, 7 mg/kg, rat, IV infusion, 7 mg/kg, 15 min; read-out: Total [plasma]
readout-name: concentration at 15 min (µM)
Number in µM, nothing else.

Ask: Requested field: concentration at 15 min. Item: `O=S(=O)(Nc1nccs1)c1cc(Cl)c(NCCCCNC[C@H]2CCCN2)cc1F`
Result: 54.4

----------
assay-name: Plasma exposure in phrenic nerve activity assay
Assay type: in vivo
assay-context: CD, rat, plasma, intravenous, 10 mg/kg, 15 min, read-out: Unbound [plasma]
readout-name: concentration at 15 min

Ask: Requested field: concentration at 15 min. Item: O=S(=O)(Nc1ncns1)c1cc(F)c(NCC23CCCN2CCC3)cc1F [SSCI-4]
Result: 23.3 µM
